# Experimental system: CCR2 (Mus musculus, UniProt P51683)
# Sequence (P51683 whole entry): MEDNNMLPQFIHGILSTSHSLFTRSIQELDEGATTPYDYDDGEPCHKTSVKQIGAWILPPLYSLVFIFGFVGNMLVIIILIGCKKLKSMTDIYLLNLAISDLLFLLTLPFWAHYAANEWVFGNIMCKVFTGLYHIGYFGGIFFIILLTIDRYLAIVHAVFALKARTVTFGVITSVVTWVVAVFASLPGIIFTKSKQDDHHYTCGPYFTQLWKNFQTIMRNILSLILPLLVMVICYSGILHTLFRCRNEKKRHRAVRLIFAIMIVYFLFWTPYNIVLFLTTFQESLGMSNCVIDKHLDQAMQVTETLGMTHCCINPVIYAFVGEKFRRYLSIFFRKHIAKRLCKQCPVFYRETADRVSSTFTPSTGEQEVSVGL
Observed property: pIC50
On this scale, pIC50 is minus log10 of a concentration expressed in M (mol/L).

What value of measured pIC50 is listed for "Cc1cnc(C(=O)c2ccnc3[nH]ccc23)c(NS(=O)(=O)c2ccc(Cl)c(C(F)(F)F)c2)c1" ?
6.57

###

# Experimental system: C3aR (Homo sapiens, UniProt Q16581)
# Construct: Human monocytes and neutrophils were isolated from healthy volunteers
# Sequence (Q16581 1-482): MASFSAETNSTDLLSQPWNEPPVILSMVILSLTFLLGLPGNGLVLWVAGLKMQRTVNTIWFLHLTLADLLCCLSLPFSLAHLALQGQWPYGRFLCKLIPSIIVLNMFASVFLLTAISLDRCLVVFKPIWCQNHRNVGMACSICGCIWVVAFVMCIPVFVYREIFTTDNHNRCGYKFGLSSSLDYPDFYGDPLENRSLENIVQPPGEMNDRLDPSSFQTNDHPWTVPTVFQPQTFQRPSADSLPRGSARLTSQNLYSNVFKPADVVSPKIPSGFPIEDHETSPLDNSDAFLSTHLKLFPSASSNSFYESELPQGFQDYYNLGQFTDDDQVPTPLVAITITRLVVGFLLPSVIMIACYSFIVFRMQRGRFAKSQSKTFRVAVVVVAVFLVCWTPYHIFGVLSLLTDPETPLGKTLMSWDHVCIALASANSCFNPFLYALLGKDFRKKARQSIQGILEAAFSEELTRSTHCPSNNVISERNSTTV
# Test: C3aR Neutrophil Calcium Mobilization
# Study conditions: read-out: Potency (IC50), C3aR
pIC50: −log10 of the molar value.
Observed property: pIC50

Hi! What's the reported pIC50 for Cc1cnc(C(=O)c2ccnc3[nH]ccc23)c(NS(=O)(=O)c2ccc(Cl)c(C(F)(F)F)c2)c1 [Compound 1] on C3aR (Homo sapiens, UniProt Q16581)?
< 5.00

###

# Experimental system: CCR7 (Homo sapiens, UniProt P32248)
# Construct: endogenous in cells
# Sequence (P32248 25-378): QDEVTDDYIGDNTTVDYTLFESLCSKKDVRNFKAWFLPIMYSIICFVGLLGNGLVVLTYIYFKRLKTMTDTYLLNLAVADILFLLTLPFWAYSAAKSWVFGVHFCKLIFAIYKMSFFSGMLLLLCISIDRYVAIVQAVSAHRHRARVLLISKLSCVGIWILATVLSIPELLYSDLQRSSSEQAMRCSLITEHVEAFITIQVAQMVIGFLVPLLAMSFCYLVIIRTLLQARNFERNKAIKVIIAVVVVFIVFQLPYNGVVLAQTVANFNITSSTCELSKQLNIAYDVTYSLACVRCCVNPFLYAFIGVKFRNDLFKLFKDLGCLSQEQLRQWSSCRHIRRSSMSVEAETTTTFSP
# Test: CCR7 Activated Lymphocyte Calcium Mobilization
# Study conditions: read-out: Potency (IC50), CCR7
Observed property: IC50

What value of measured IC50 is listed for "Cc1cnc(C(=O)c2ccnc3[nH]ccc23)c(NS(=O)(=O)c2ccc(Cl)c(C(F)(F)F)c2)c1" ?
> 10 µM

###

# Experimental system: CCR9 (Homo sapiens, UniProt P51686)
# Construct: cell lines that either endogenously expressed certain chemokine receptors; endogenous in cells
# Sequence (P51686 1-369): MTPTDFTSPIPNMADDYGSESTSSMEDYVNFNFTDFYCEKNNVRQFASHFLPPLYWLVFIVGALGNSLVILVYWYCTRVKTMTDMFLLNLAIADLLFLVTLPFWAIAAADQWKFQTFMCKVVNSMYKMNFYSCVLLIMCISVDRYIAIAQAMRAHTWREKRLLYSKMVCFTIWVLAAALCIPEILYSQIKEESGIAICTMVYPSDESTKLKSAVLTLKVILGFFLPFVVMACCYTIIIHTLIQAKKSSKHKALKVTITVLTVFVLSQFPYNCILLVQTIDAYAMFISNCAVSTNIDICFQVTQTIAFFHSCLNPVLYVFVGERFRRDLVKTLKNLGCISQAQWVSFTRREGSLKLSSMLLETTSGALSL
# Test: CCR9 Molt4 Serum Chemotaxis
# Study conditions: read-out: Potency (IC50), CCR9
# Description: Chemotaxis, calcium mobilization, and radio-ligand binding assays were conducted as previously described (Sullivan et al, 2013; Walters et al, 2010). Inhibition values (IC50) were calculated using non-linear regression with a one-site competition model (GraphPad Prism, GraphPad Software, La Jolla, Calif.). […] Urinary albumin was measured by ELISA (Bethyl Labs, Montgomery, Tex.). Urinary and serum creatinine was measured by LC-MS/MS at ChemoCentryx. […]
pIC50: −log10 of the molar value.
Observed property: pIC50

What value of measured pIC50 is listed for Cc1cnc(C(=O)c2ccnc3[nH]ccc23)c(NS(=O)(=O)c2ccc(Cl)c(C(F)(F)F)c2)c1 [Compound 1] ?
< 5.00

###

# Experimental system: CCR8 (Homo sapiens, UniProt P51685)
# Sequence (P51685 whole entry): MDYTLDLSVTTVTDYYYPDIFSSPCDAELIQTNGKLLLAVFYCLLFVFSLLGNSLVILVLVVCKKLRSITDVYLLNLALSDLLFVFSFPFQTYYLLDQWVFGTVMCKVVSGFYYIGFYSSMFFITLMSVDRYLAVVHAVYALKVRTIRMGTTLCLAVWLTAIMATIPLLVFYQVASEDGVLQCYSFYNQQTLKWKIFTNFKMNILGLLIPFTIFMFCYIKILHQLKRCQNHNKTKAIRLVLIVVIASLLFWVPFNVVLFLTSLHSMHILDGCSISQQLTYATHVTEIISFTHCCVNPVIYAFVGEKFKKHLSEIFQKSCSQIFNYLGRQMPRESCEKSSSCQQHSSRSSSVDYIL
# Test: 293-CCR8 Calcium Mobilization
# Study conditions: read-out: Potency (IC50), CCR8
pIC50: −log10 of the molar value.
Observed property: pIC50

What value of measured pIC50 is listed for "Cc1cnc(C(=O)c2ccnc3[nH]ccc23)c(NS(=O)(=O)c2ccc(Cl)c(C(F)(F)F)c2)c1" ?
< 5.00

###

# Experimental system: CCR10 (Homo sapiens)
# Sequence (P46092 whole entry): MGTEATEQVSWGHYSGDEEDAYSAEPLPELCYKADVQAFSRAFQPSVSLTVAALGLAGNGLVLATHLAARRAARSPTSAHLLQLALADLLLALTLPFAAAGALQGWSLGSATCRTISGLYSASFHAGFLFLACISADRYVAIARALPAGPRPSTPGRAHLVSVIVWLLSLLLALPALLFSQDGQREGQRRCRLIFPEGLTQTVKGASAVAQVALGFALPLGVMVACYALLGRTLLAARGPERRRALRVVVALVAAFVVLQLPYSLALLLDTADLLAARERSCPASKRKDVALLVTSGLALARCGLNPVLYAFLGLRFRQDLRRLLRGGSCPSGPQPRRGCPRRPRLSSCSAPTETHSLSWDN
# Test: 293-CCR10 Calcium Mobilization
# Study conditions: read-out: Potency (IC50), CCR10
pIC50: −log10 of the molar value.
Observed property: pIC50

What value of measured pIC50 is listed for Cc1cnc(C(=O)c2ccnc3[nH]ccc23)c(NS(=O)(=O)c2ccc(Cl)c(C(F)(F)F)c2)c1 [Compound 1] ?
< 5.00

###

# Experimental system: CXCR2 (Homo sapiens, UniProt P25025)
# Construct: Human monocytes and neutrophils were isolated from healthy volunteers
# Sequence (P25025 whole entry): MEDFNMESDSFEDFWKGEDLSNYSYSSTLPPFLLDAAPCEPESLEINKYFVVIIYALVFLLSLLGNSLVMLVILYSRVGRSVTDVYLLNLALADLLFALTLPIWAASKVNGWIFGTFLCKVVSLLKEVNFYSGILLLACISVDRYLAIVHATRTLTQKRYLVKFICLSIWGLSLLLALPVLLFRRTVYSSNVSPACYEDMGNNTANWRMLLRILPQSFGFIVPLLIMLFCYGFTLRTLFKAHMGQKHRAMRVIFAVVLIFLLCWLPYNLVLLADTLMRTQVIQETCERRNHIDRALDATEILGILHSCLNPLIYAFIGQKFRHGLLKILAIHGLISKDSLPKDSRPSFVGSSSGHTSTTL
# Test: CXCR2 Neutrophil Calcium Mobilization
# Study conditions: read-out: Potency (IC50), CXCR2
Observed property: IC50

What value of measured IC50 is listed for "Cc1cnc(C(=O)c2ccnc3[nH]ccc23)c(NS(=O)(=O)c2ccc(Cl)c(C(F)(F)F)c2)c1" ?
> 10 µM
